In this section we review reported Kd values for a set of binders.
Molecular target: T1, Recombinant ClfB N2N3 (rClfB_(201–542)) (S. aureus, UniProt O86476 201-542)
T1 construct: Clumping factor B (ClfB) of S. aureus, amino acids 201-542 (subdomains N2 and N3 of the A domain), amplified from plasmid pCU1:clfB; also called ClfB N2N3_(201–542); ClfB N23_(201–542); not shown: His6, N-terminal, kept
T1 sequence: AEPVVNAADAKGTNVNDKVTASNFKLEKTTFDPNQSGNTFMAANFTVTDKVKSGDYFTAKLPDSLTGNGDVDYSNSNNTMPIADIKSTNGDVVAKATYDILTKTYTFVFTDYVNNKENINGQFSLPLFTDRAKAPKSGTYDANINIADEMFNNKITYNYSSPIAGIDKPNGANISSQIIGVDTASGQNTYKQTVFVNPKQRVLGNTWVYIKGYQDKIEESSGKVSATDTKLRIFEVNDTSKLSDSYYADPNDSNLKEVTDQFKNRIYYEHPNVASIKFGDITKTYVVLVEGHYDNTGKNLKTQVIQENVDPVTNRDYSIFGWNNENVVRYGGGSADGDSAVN
Test: SPR; BIAcore X100; GST-tagged ligand captured on a CM5 chip coated with goat anti-GST IgG, GST on the reference cell; increasing concentrations of rClfB_(201–542) in PBS passed in succession without regeneration (single cycle); KD from response at equilibrium against concentration
Details: both partners purified
readoutType: Kd (µM)

1. GST-human loricrin_(1–315) (natural protein, UniProt P23490 1-312, looked up, Loricrin, human, full length, printed as residues 1-315 (S1 to K315); also called HLor; Hlor; source: DNA codon optimised for E. coli, in pGEX-4T; purified on GSTrap FF; not shown: GST, N-terminal, kept) MSYQKKQPTPQPPVDCVKTSGGGGGGGGSGGGGCGFFGGGGSGGGSSGSGCGYSGGGGYSGGGCGGGSSGGGGGGGIGGCGGGSGGSVKYSGGGGSSGGGSGCFSSGGGGSGCFSSGGGGSSGGGSGCFSSGGGGSSGGGSGCFSSGGGGFSGQAVQCQSYGGVSSGGSSGGGSGCFSSGGGGGSVCGYSGGGSGCGGGSSGGSGSGYVSSQQVTQTSCAPQPSYGGGSSGGGGSGGSGCFSSGGGGGSSGCGGGSSGIGSGCIISGGGSVCGGGSSGGGGGGSSVGGSGSGKGVPICHQTQQKQAPTWPSK
4.33
2. GST-murine K10_(454–570) (domain or fragment, UniProt P02535 454-570, looked up, Cytokeratin 10 (K10), murine, residues 454-570 (C-terminal tail region); also called MK10; GST-MK10; source: DNA codon optimised for E. coli, in pGEX-4T; purified on GSTrap FF; not shown: GST, N-terminal, kept) EGSSSGGGGGRRGGSGGGSYGGSSGGGSYGGSSGGGGSYGGSSGGGGSYGGGSSGGGSHGGSSGGGYGGGSSSGGAGGHGGSSGGGYGGGSSSGGQGGSGGFKSSGGGDQSSKGPRY
14.4
3. GST-Fgα_(316–367) (domain or fragment, UniProt P02671 335-386, looked up, Fibrinogen α-chain, residues 316-367, repeat domain 5 of the αC region; also called repeat domain 5 of the αC region of Fg) NSGSSGTGSTGNQNPGSPRPGSTGTWNPGSSERGSAGHWTSESSVSGSTGQW
5.25
4. GGSSGGGSSSGGGYGGGSSS (Cytokeratin 10 (K10), human, residues 544-563 (C-terminal tail region); also called HK10; GST-HK10; source: DNA codon optimised for E. coli, in pGEX-4T; purified on GSTrap FF; not shown: GST, N-terminal, kept) [GST-human K10_(544–563)]
7.89
